# ASSAY_METHOD_TEXT: Rat pharmacokinetics, oral dosing
# Format: in vivo, Sprague-Dawley rats
# ASSAY_SETUP: male, Sprague-Dawley, oral dosing at 3 mg/kg, plasma
# key: entry, value: AUC

C[C@@]1(c2ccc(Cl)cn2)Oc2cccc(C3CCN(Cc4nc5c(OC6CC6)cc(C(=O)O)cc5n4Cc4cncs4)CC3)c2O1 :: < 500 ng·h/mL
COc1cc(C(=O)O)cc2c1nc(N(C)[C@H]1CC[C@H](c3cccc4c3O[C@@](C)(c3ccc(Cl)cn3)O4)CC1)n2C[C@@H]1CCO1 :: < 500 ng·h/mL
COc1cc(C(=O)O)cc2c1nc(CN1CCC(c3cccc(OCc4ccc(C(F)F)cc4F)n3)CC1)n2C :: 2500 to 10000 ng·h/mL

For the compound shown here, COCCOc1cc(C(=O)O)cc2c1nc(CN1CCC(c3cccc4c3O[C@@](C)(c3ccc(Cl)cn3)O4)CC1)n2C , give the reported AUC. < 500 ng·h/mL

Record request: AUC value, item Cn1c(CN2CCC(c3cccc(OCc4ccc(Cl)cc4F)n3)CC2)nc2c(O)cc(C(=O)O)cc21 < 500 ng·h/mL

// returns reported AUC for input COc1cc(C(=O)O)cc2c1nc(CN1CCC(c3cccc4c3O[C@@](C)(c3ccc(Cl)cn3)O4)CC1)n2C 2500 to 10000 ng·h/mL

Consider the compound shown here: COc1cc(C(=O)O)c(F)c2c1nc(CN1CCC(c3cccc(OCc4ccc(Cl)cc4F)n3)CC1)n2C What is its recorded AUC? 2500 to 10000 ng·h/mL

Quick one: AUC of Cn1c(CN2CCC(c3cccc(OCc4ccc(C#N)cc4F)n3)CC2)nc2c(OC(F)F)cc(C(=O)O)cc21 ? 2500 to 10000 ng·h/mL

Would you kindly share the measured AUC for Cn1c(N(C)[C@H]2CC[C@H](c3cccc(OCc4ccc(C#N)cc4F)n3)CC2)nc2c(OC(F)F)cc(C(=O)O)cc21 ? 500 to 2500 ng·h/mL

Fill in: AUC of COc1cc(C(=O)O)c(F)c2c1nc(CN1CCC(c3cccc(OCc4ccc(C#N)cc4F)n3)CC1)n2C is ___ 500 to 2500 ng·h/mL

Recorded AUC for Cn1c(CN2CCC(c3ccc(F)c(OCc4ccc(C#N)cc4F)n3)CC2)nc2c(OC(F)F)cc(C(=O)O)cc21 , please? 2500 to 10000 ng·h/mL

Quick one: AUC of [2H]C([2H])(C)Oc1cc(C(=O)O)cc2c1nc(CN1CCC(c3cccc(OCc4ccc(C#N)cc4F)n3)CC1)n2C ? 500 to 2500 ng·h/mL

Need AUC of COc1cc(C(F)(F)F)ccc1COc1cccc(C2CCN(Cc3nc4c(OC)cc(C(=O)O)cc4n3C)CC2)n1 , thanks. 2500 to 10000 ng·h/mL

Which AUC reading was recorded for the compound C[C@]1(c2ccc(Cl)cn2)Oc2cccc(C3CCN(Cc4nc5c(OC6COC6)cc(C(=O)O)cc5n4C[C@@H]4CCO4)CC3)c2O1 ? < 500 ng·h/mL

---

# ASSAY_METHOD_TEXT: Rat pharmacokinetics, oral dosing
# Assay type: in vivo, Sprague-Dawley rats
# ASSAY_SETUP: male, Sprague-Dawley, oral dosing at 3 mg/kg, plasma
READOUT: AUC

CCOc1cc(C(=O)O)cc2c1nc(CN1CCC(c3cccc(OCc4ccc(C#N)cc4F)n3)CC1)n2C :: 500 to 2500 ng·h/mL
C[C@]1(c2ccc(Cl)cn2)Oc2cccc(C3CCN(Cc4nc5c(OC6CC6)cc(C(=O)O)cc5n4Cc4cncs4)CC3)c2O1 :: < 500 ng·h/mL
C[C@]1(c2ccc(Cl)cn2)Oc2cccc(C3CCN(Cc4nc5c(OCC6COC6)cc(C(=O)O)cc5n4C[C@@H]4CCO4)CC3)c2O1 :: < 500 ng·h/mL
Cn1c(CN2CCC(c3cccc(OCc4ccc(C#N)cc4F)n3)CC2)nc2c(OCF)cc(C(=O)O)cc21 :: 500 to 2500 ng·h/mL
COc1cc(C(=O)O)cc2c1nc(CN1CCC(c3cccc(OCc4ccc(C#N)cc4F)n3)CC1)n2C :: 2500 to 10000 ng·h/mL
CC(F)(F)c1cc(C(=O)O)cc2c1nc(CN1CCC(c3cccc4c3O[C@](C)(c3ccc(Cl)cn3)O4)CC1)n2C[C@@H]1CCO1 :: 500 to 2500 ng·h/mL
[2H]C([2H])(C)Oc1cc(C(=O)O)cc2c1nc(CN1CCC(c3cccc(OCc4ccc(Cl)cc4F)n3)CC1)n2C :: 2500 to 10000 ng·h/mL
C[C@]1(c2ccc(Cl)cn2)Oc2cccc(C3CCN(Cc4nc5c(O)cc(C(=O)O)cc5n4Cc4cncs4)CC3)c2O1 :: < 500 ng·h/mL

For the molecule Cn1c(CN2CCC(c3cccc4c3OC(c3ccc(Cl)cc3F)C=C4)CC2)nc2c(OC(F)F)cc(C(=O)O)cc21 (single isomer, unassigned) , what AUC is on record? 500 to 2500 ng·h/mL

# input molecule: COc1cc(C(=O)O)cc2c1nc(CN1CCC(c3cccc(OCc4ccc(C#N)cc4F)n3)CC1)n2C[C@@H]1CCO1 ; wanted: its AUC < 500 ng·h/mL

GET /values?readout=AUC&item= COc1cc(C(=O)O)cc2c1nc(Cc1cc(F)c(-c3cccc(OCc4ccc(C#N)cc4F)n3)cc1F)n2C 2500 to 10000 ng·h/mL

Entry COc1cc(C#N)ccc1COc1cccc(C2CCN(Cc3nc4c(OC(F)F)cc(C(=O)O)cc4n3C)CC2)n1 : reported AUC = ? 2500 to 10000 ng·h/mL

So what's the measured AUC for this one? C[C@]1(c2ccc(Cl)cn2)Oc2cccc(C3CCN(Cc4nc5c(OCCF)cc(C(=O)O)cc5n4C[C@@H]4CCO4)CC3)c2O1 < 500 ng·h/mL

Tell me the measured AUC of COc1c(F)c(C(=O)O)cc2c1nc(CN1CCC(c3cccc(OCc4ccc(C#N)cc4F)n3)CC1)n2C , please. 500 to 2500 ng·h/mL

---

# ASSAY_METHOD_TEXT: Metabolic stability in rat hepatocytes
# Type: in vitro ADME
# ASSAY_SETUP: cryopreserved hepatocytes, 1 μM, 1×10^6 cells/mL, 0-240 min, read-out: Rat t1/2
READOUT: half-life at 1 μM (h)

(P) COc1cc(C(=O)O)cc2c1nc(CN1CCC(c3cccc(OCc4ccc(C#N)cc4F)n3)CC1)n2Cc1cncs1
(Q) COc1cc(C(=O)O)cc2c1nc(CN1CCC(c3cccc(OCc4ccc(C#N)cc4F)n3)CC1)n2C[C@@H]1CCO1
Recorded half-life at 1 μM values differ for P and Q ; which one is higher? Pick one; state its label. Q

---

# ASSAYED_SYSTEM: human GLP-1R receptor (Homo sapiens)
# Construct: expressed in transfected cells
# ASSAY_METHOD_TEXT: GLP-1R low expression cell assay (cAMP TR-FRET, CHO-K1_hGLP-1Rlow_clone10 cells)
# Assay type: cell-based
# ASSAY_SETUP: cAMP TR-FRET, 30 min at 25° C.
Below: a set of entries, each annotated with reported EC50.

Previously resolved entries follow.
Cn1c(CN2CCC(c3cccc(OCc4ccc(C(F)(F)F)cc4F)n3)CC2)nc2c(OC(F)F)cc(C(=O)O)cc21 :: 10 to 100 nM
COc1cc(C(=O)O)cc2c1nc(N(C)[C@H]1CC[C@H](c3cccc(OCc4ccc(Cl)cc4F)n3)CC1)n2C :: < 10 nM

EC50 for COc1cc(C(=O)O)cc2c1nc(CN1CCC(c3cccc4c3O[C@H](c3ccc(Cl)cc3F)CO4)CC1)n2C ? 100 to 1000 nM

Bench note: what EC50 did Cn1c(CN2CCC(c3cccc(OCc4ccc(Cl)cc4F)n3)CC2)nc2c(OC(F)F)cc(-c3cc(O)no3)cc21 show? 100 to 1000 nM

---

# ASSAYED_SYSTEM: human GLP-1R receptor (Homo sapiens, UniProt P43220)
# Sequence (P43220 24-463): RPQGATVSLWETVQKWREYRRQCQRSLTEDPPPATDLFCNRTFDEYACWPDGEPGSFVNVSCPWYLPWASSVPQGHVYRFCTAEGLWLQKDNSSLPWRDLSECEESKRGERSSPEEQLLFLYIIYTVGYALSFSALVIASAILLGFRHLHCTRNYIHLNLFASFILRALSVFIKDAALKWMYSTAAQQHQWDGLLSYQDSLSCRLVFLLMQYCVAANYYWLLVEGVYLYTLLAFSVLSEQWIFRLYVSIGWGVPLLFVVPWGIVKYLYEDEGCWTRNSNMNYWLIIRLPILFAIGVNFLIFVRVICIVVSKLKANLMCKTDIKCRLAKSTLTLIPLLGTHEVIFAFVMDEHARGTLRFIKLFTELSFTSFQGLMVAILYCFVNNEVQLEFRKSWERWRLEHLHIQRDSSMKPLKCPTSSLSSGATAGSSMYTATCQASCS
# ASSAY_METHOD_TEXT: GLP-1R low expression cell assay (cAMP TR-FRET, CHO-K1_hGLP-1Rlow_clone10 cells)
# ASSAY_SETUP: cAMP TR-FRET, 30 min at 25° C.
Quick reference: EC50 of the listed items.

These recorded examples may help you get a feel for the data.
Cn1c(CN2CCC(c3cccc(OCc4ccc(C#N)cc4F)n3)CC2)nc2c(OC(C)(C)C)cc(C(=O)O)cc21 :: 0.1 to 1 µM
COc1c(F)c(C(=O)O)cc2nc(CN3CCC(c4cccc(OCc5ccc(C#N)cc5F)n4)CC3)n(C)c12 :: > 1 µM
COc1cc(C#CC(=O)O)cc2c1nc(CN1CCC(c3cccc(OCc4ccc(Cl)cc4F)n3)CC1)n2C[C@@H]1CCO1 :: 0.01 to 0.1 µM
COCCOCCOCCOCCOCCOc1cc(C(=O)O)cc2c1nc(CN1CCC(c3cccc4c3O[C@@](C)(c3ccc(Cl)cn3)O4)CC1)n2Cc1cncs1 :: < 0.01 µM
Cn1c(CN2CCC(c3cccc(OCc4ccc(Cl)cc4F)n3)CC2)nc2c(OC(F)(F)CF)cc(C(=O)O)cc21 :: 0.01 to 0.1 µM
COc1cc(C(=O)O)cc2c1nc([C@H](C)N1CCC(c3cccc(OCc4ccc(C#N)cc4F)n3)CC1)n2C :: 0.01 to 0.1 µM
[2H]C([2H])([2H])Oc1cc(C(=O)O)cc2c1nc(CN1CCC(c3cccc(OCc4ccc(C#N)cc4F)n3)CC1)n2C[C@@H]1CCO1 :: < 0.01 µM
Cn1c(CN2CCC(c3cccc4c3O[C@@H](c3ccc(Cl)cc3F)CO4)CC2)nc2c(OC(F)F)cc(C(=O)O)cc21 :: 0.01 to 0.1 µM
CO[C@H]1C[C@H](Oc2cc(C(=O)O)cc3c2nc(CN2CCC(c4cccc(OCc5ccc(C#N)cc5F)n4)CC2)n3C)C1 :: 0.1 to 1 µM
COc1cc(C(=O)O)cc2c1nc(CN1CCC(c3cccc4c3OC[C@H](c3ccc(Cl)cc3F)O4)CC1)n2C :: 0.1 to 1 µM

I have this compound here, Cn1c(CN2CCC(c3cccc4c3OC[C@@H](c3ccc(C#N)cc3F)O4)CC2)nc2c(OC(F)F)cc(C(=O)O)cc21 , and I need its recorded EC50. 0.1 to 1 µM

Which EC50 value belongs to CO[C@H]1C[C@@H](Oc2cc(C(=O)O)cc3c2nc(CN2CCC(c4cccc(OCc5ccc(C#N)cc5F)n4)CC2)n3C)C1 ? 0.1 to 1 µM

Which value of EC50 has been reported for CC(C)Oc1cc(C(=O)O)cc2c1nc(CN1CCC(c3cccc4c3O[C@@](C)(c3ccc(Cl)cn3)O4)CC1)n2C in the records? < 0.01 µM
